FYI, the data here is from paper PMC8445433.

Below: a set of entries, each annotated with reported pIC50.
Target: DRB1*01:01 (Homo sapiens, UniProt P01903+P01911, A100R/D57E/F55L/F60I/F76Y/I96L/L162R/M171V/P40L/Q125E/R42F/V115G/Y59C)
Test: biochemical
Where a SMILES comes first, the peptide text is derived from it.
FYI, pIC50 means -log10 of a concentration in mol per litre.

MOLECULE	pIC50
CC[C@H](C)[C@H](NC(=O)CNC(=O)[C@H](CC(=O)O)NC(=O)[C@H](CCCCN)NC(=O)[C@H](CC(N)=O)NC(=O)[C@H](C)NC(=O)CNC(=O)[C@H](Cc1ccc(O)cc1)NC(=O)[C@@H]1CCCN1C(=O)[C@@H](N)CC(C)C)C(=O)N[C@H](C(=O)N[C@@H](Cc1c[nH]c2ccccc12)C(=O)N[C@H](C(=O)N[C@@H](C)C(=O)N[C@H](C(=O)O)[C@@H](C)O)C(C)C)[C@@H](C)CC [Ncl_25] (H-LPYGANKDGIIWVAT-OH)	5.88
CC[C@H](C)[C@H](NC(=O)[C@H](CCC(N)=O)NC(=O)[C@H](CC(=O)O)NC(=O)[C@@H](N)CC(=O)O)C(=O)NCC(=O)N[C@@H](Cc1ccc(O)cc1)C(=O)N[C@@H](Cc1ccc(O)cc1)C(=O)N[C@@H](CCCNC(=N)N)C(=O)N[C@@H](CCCNC(=N)N)C(=O)N[C@@H](C)C(=O)N[C@H](C(=O)N[C@@H](CCCNC(=N)N)C(=O)N[C@@H](CCCNC(=N)N)C(=O)N[C@H](C(=O)N[C@@H](CCCNC(=N)N)C(=O)O)[C@@H](C)CC)[C@@H](C)O [Ncl_P17] (H-DDQIGYYRRATRRIR-OH)	7.37
CC[C@H](C)[C@H](NC(=O)[C@H](CCCNC(=N)N)NC(=O)[C@H](CCCNC(=N)N)NC(=O)[C@@H](NC(=O)[C@H](C)NC(=O)[C@H](CCCNC(=N)N)NC(=O)[C@H](CCCNC(=N)N)NC(=O)[C@H](Cc1ccc(O)cc1)NC(=O)[C@@H](N)Cc1ccc(O)cc1)[C@@H](C)O)C(=O)N[C@@H](CCCNC(=N)N)C(=O)NCC(=O)NCC(=O)N[C@@H](CC(=O)O)C(=O)NCC(=O)N[C@@H](CCCCN)C(=O)O [Ncl_P18] (H-YYRRATRRIRGGDGK-OH)	7.21
CC(C)C[C@H](NC(=O)[C@H](Cc1ccc(O)cc1)NC(=O)[C@H](Cc1ccc(O)cc1)NC(=O)[C@H](Cc1ccccc1)NC(=O)[C@H](Cc1ccc(O)cc1)NC(=O)[C@H](Cc1c[nH]c2ccccc12)NC(=O)[C@H](CCCNC(=N)N)NC(=O)[C@@H]1CCCN1)C(=O)NCC(=O)N[C@H](C(=O)NCC(=O)N1CCC[C@H]1C(=O)N[C@@H](CCC(=O)O)C(=O)N[C@@H](C)C(=O)NCC(=O)O)[C@@H](C)O [Ncl_22] (H-PRWYFYYLGTGPEAG-OH)	8.07
CC[C@H](C)[C@H](NC(=O)[C@H](Cc1c[nH]cn1)NC(=O)[C@H](CCCCN)NC(=O)[C@H](CC(N)=O)NC(=O)[C@H](CC(C)C)NC(=O)[C@H](CC(C)C)NC(=O)[C@@H](NC(=O)[C@@H](NC(=O)[C@H](CCC(N)=O)NC(=O)[C@H](CC(=O)O)NC(=O)[C@H](CCCCN)NC(=O)[C@@H](N)Cc1ccccc1)C(C)C)[C@@H](C)CC)C(=O)N[C@@H](CC(=O)O)C(=O)N[C@@H](C)C(=O)N[C@@H](Cc1ccc(O)cc1)C(=O)O [Ncl_70] (H-FKDQVILLNKHIDAY-OH)	7.38

Consider the additional molecule presented here.
Entry CSCC[C@H](NC(=O)[C@H](CCCCN)NC(=O)[C@H](CO)NC(=O)[C@H](CCC(=O)O)NC(=O)[C@H](CC(C)C)NC(=O)[C@H](CCC(N)=O)NC(=O)[C@H](CC(N)=O)NC(=O)[C@H](CC(C)C)NC(=O)[C@H](CCCNC(=N)N)NC(=O)[C@H](CC(=O)O)NC(=O)[C@H](CC(C)C)NC(=O)[C@H](CC(C)C)NC(=O)[C@H](CC(C)C)NC(=O)[C@@H](N)CC(C)C)C(=O)N[C@@H](CO)C(=O)O [Ncl_45] (H-LLLLDRLNQLESKMS-OH) , pIC50 reported as 7.02
